- testedOn: μ-opioid receptor (Homo sapiens, UniProt P35372)
- Sequence (P35372 whole entry, species assumed): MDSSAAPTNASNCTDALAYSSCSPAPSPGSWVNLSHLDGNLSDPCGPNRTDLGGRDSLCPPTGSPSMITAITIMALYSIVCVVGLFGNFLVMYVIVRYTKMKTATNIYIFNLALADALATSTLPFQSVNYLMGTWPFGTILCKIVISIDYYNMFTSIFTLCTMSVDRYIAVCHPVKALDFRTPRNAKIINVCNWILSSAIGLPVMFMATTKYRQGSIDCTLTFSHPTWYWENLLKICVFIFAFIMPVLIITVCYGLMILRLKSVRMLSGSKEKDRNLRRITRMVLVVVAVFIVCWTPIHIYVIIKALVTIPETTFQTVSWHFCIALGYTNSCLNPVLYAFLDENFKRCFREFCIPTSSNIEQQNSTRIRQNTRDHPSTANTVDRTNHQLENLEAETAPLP
- testSummary: μ-opioid receptor [35S]GTPγS functional assay, U-2 OS cells
- Type: biochemical
- Parameters: host or cells: U-2 OS cells
Reported pEC50 values for the following compounds.
Would you please state pEC50, meaning minus log10 of the concentration in mol/L, as a bare number?

INSERT INTO results (compound, testedon, valuekind, assayvalue) VALUES
  ('NCCCCN[C@@H]1CC[C@@]2(O)[C@H]3Cc4ccc(O)cc4[C@@]2(CCN3CC2CC2)C1 [Compound 14]', 'μ-opioid receptor (Homo sapiens, UniProt P35372)', 'pEC50', 7.07);

Input line: Give the reported pEC50 for CC(C)C(=O)N[C@H]1CC[C@]23CCN(CC4CC4)[C@H](Cc4ccc(O)cc42)[C@]3(O)C1 [Compound 46] (system: μ-opioid receptor (Homo sapiens, UniProt P35372)).
Output line: 9.42

Input line: Give the reported pEC50 for O=C1C=C2[C@H]3Cc4ccc(O)cc4[C@]2(CC1)CCN3CC1CC1 [Compound 68] (system: μ-opioid receptor (Homo sapiens, UniProt P35372)).
Output line: 8.34

Input line: Give the reported pEC50 for CC(C)C(=O)N[C@H]1C[C@@]2(O)[C@H]3Cc4ccc(O)cc4[C@@]2(CCN3CC2CC2)CC1O (stereo partly shown) [Compound 50] (system: μ-opioid receptor (Homo sapiens, UniProt P35372)).
Output line: 6.95

Input line: Give the reported pEC50 for N=C(N)Nc1ccc(N[C@@H]2CC[C@@]3(O)[C@H]4Cc5ccc(O)cc5[C@@]3(CCN4CC3CC3)C2)cc1 [Compound 24] (system: μ-opioid receptor (Homo sapiens, UniProt P35372)).
Output line: 8.09

* * *

Reported EC50 values for the following compounds.
- testedOn: μ-opioid receptor (Homo sapiens)
- testSummary: μ-opioid receptor [35S]GTPγS functional assay, U-2 OS cells
- Format: biochemical
- Design: host or cells: U-2 OS cells
Report the value in nM with no unit label.

INSERT INTO assay_data (compound, testedon, valuekind, assayvalue) VALUES
  ('CN[C@@H]1C[C@@]2(O)[C@H]3Cc4ccc(O)cc4[C@@]2(CCN3CC2CC2)C[C@@H]1O', 'μ-opioid receptor (Homo sapiens)', 'EC50', 2.55),
  ('COc1ccc2c(c1)[C@@]13CCC(=O)C[C@@]1(O)[C@@H](C2)N(CC1CC1)CC3', 'μ-opioid receptor (Homo sapiens)', 'EC50', 740),
  ('CC(C)CCCC(=O)N[C@H]1C[C@@]2(O)[C@H]3Cc4ccc(O)cc4[C@@]2(CCN3CC2CC2)CC1O (some centres unmarked)', 'μ-opioid receptor (Homo sapiens)', 'EC50', 63.2);

Input line: What value of EC50 has been reported for the following compound? CC[C@H](C)C(=O)N[C@H]1C[C@@]2(O)[C@H]3Cc4ccc(O)cc4[C@@]2(CCN3CC2CC2)C[C@H]1O
Output line: 45

* * *

Target or system UniProt P41145; recorded quantity Ki.
Sequence (P41145 whole entry): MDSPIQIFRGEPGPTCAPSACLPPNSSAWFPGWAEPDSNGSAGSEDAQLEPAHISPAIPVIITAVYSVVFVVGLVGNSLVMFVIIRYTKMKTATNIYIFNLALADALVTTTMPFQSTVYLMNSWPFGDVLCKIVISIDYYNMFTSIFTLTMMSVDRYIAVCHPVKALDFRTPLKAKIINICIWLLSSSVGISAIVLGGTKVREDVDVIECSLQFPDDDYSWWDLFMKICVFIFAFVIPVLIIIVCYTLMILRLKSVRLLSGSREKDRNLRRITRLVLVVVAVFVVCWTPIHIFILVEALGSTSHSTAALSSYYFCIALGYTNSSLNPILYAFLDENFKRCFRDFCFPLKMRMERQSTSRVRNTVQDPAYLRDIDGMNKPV
Report the value in pM with no unit label.

INSERT INTO assay_data (givensmiles, valuekind, assayvalue) VALUES
  ('N=C(N)NCCCN[C@@H]1CC[C@@]2(O)[C@H]3Cc4ccc(O)cc4[C@@]2(CCN3CC2CC2)C1', 'Ki', 530),
  ('COc1ccc2c(c1)[C@]13CCN(CC4CC4)[C@H](C2)[C@]1(O)CC[C@H](O)C3', 'Ki', 172000),
  ('N=C(N)NCCCC(=O)N[C@@H]1CC[C@@]2(O)[C@H]3Cc4ccc(O)cc4[C@@]2(CCN3CC2CC2)C1', 'Ki', 1850);

Input line: What value of Ki has been reported for the following compound? NCCCCN[C@@H]1CC[C@@]2(O)[C@H]3Cc4ccc(O)cc4[C@@]2(CCN3CC2CC2)C1
Output line: 560

Input line: What value of Ki has been reported for the following compound? N=C(N)NCCCCN[C@@H]1CC[C@@]2(O)[C@H]3Cc4ccc(O)cc4[C@@]2(CCN3CC2CC2)C1
Output line: 480
